Cited source: paper PMC8958501

System: E. coli CS1562
Experiment: Antibacterial activity assay (MIC, bacterial growth curves)
Assay type: cell-based, Escherichia coli
Details: Escherichia coli, light or radiation study; before irradiation; E. coli CS1562, 24 h; read-out: MIC (µM) before irradiation
experimental readout: MIC (µM)
Reply numerically in µM, unit not repeated.

COC(C)(C#Cc1cnc(N)nc1N)c1ccc(/N=N/c2ccc(C(=O)O)c(C)c2)cc1 (stereo not shown)
20
COC(C)(C#Cc1cnc(N)nc1N)c1ccc(/N=N/c2ccc(C)c(C(=O)O)c2)cc1 (stereo not shown)
20
COC(C)(C#Cc1cnc(N)nc1N)c1ccc(/N=N/c2ccc(C(=O)O)cc2)cc1 (stereo not shown)
40
COC(C)(C#Cc1cnc(N)nc1N)c1ccc(/N=N/c2ccc(Cl)c(C(=O)O)c2)cc1 (stereo not shown)
40
COC(C)(C#Cc1cnc(N)nc1N)c1ccc(/N=N/c2c(C)nn(C)c2C)cc1 (stereo not shown)
80
COC(C)(C#Cc1cnc(N)nc1N)c1ccc(/N=N/c2cccc(C(=O)O)c2)cc1 (stereo not shown)
20

Lab note: COC(C)(C#Cc1cnc(N)nc1N)c1cccc(/N=N/c2ccccc2)c1 (stereo not shown) gave MIC of 20

Lab note: COC(C)(C#Cc1cnc(N)nc1N)c1ccc(/N=N/c2ccc(C(=O)O)c(Cl)c2)cc1 (stereo not shown) gave MIC of 40
